Biological target: Neu5Ac(a2-3)Gal(b1-4)[Fuc(a1-3)]GlcNAc(b1-3)GalNAc
Experiment: glycan array binding signal (z-score within array); higher = stronger binding
Settings: glycan notation: IUPAC condensed, linker removed
This excerpt belongs to a sample that is enriched for the strongest signals.
A collection of binders and their measured glycan array binding signal (z-score)
measure: glycan array binding signal (z-score)

INSERT INTO assay_data (binder, number) VALUES
  ('SP15308F-bth-333-19-333 (Bacteroides thetaiotaomicron) (protein) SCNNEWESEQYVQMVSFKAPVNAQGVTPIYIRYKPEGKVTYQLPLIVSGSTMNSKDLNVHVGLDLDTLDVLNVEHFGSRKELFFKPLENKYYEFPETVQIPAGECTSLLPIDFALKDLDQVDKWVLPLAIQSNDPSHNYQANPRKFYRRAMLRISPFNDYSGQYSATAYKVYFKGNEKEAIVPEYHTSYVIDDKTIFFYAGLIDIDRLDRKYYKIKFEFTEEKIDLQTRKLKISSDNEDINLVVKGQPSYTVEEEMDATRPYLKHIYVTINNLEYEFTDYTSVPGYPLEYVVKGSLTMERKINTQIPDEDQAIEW', 3.76),
  ('GS13455A-bfa-343-25-343 (Bacteroides fragilis) (protein) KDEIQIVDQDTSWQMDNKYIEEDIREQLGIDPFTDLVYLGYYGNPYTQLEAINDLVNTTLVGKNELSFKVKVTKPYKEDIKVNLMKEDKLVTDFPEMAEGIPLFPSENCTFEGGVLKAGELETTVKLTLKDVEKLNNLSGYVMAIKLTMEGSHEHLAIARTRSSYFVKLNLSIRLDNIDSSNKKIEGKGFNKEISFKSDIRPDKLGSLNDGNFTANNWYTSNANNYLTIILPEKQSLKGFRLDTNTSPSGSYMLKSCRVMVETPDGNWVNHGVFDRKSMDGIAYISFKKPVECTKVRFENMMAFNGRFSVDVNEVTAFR', 3.25),
  ('ECA (Erythrina cristagalli), P83410 (protein) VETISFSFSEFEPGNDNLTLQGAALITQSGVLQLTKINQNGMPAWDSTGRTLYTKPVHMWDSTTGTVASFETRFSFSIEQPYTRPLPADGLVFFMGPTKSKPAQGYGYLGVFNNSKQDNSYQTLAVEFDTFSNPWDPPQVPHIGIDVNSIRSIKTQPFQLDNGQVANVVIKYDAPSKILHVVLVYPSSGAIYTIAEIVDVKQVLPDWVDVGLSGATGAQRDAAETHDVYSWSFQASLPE', 0.567),
  ('Pp2-A2 (Arabidopsis thaliana), Q07098 (protein) MPSNGDLDRQIEQLMECKPLSEADVRTLCDQARAILVEEYNVQPVKCPVTVCGDIHGQFYDLIELFRIGGNAPDTNYLFMGDYVDRGYYSVETVSLLVALKVRYRDRLTILRGNHESRQITQVYGFYDECLRKYGNANVWKYFTDLFDYLPLTALIESQVFCLHGGLSPSLDTLDNIRSLDRIQEVPHEGPMCDLLWSDPDDRCGWGISPRGAGYTFGQDIAAQFNHNNGLSLISRAHQLVMEGFNWCQDKNVVTVFSAPNYCYRCGNMAAILEIGENMEQNFLQFDPAPRQVEPDTTRKTPDYFL', 4.64);

Data origin, for the record: the supplement of paper PMC8728848
